target: rat 5-HT7 receptor (Rattus norvegicus (Rat), UniProt P32305); experiment: r5-HT7 binding assay, competitive radioligand binding with [3H]5-CT; conditions: rat 5-HT7 receptor, HEK-293 membranes
Sequence (P32305 1-435): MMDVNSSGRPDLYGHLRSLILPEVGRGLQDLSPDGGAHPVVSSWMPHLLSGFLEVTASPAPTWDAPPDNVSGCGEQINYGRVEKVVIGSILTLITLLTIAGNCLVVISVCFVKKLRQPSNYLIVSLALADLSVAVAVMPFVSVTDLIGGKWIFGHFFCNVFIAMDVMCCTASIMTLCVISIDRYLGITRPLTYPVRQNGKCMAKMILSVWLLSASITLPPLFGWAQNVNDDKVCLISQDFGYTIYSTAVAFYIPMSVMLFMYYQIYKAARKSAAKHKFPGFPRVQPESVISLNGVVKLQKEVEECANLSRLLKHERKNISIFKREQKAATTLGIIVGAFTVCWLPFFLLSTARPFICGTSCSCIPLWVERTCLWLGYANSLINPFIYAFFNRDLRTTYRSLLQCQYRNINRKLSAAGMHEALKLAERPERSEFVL
Result Type: Ki (µM)
Give the number; µM is assumed, so skip it.

// worked examples, Ki included
Clc1ccc(OCc2ccccc2)c(OC2CNC2)c1 [Example 40]	0.009
COc1cccc2c1CC(Oc1ccc(Cl)cc1OC1CNC1)C2 (stereo not drawn) [Example 178]	0.017
CCN1CC(Oc2cc(F)ccc2OCc2cccc(Cl)c2)C1 [Example 207]	0.02
CN1CC[C@@H](Oc2cc(Cl)ccc2OCc2cccc(Cl)c2)C1 [Example 59]	0.027
FC(F)(F)Oc1ccc(COc2ccc(Br)cc2OC2CNC2)cc1Cl [Example 11]	0.053
Fc1cc(C(F)(F)F)ccc1COc1ccc(Cl)cc1OC1CNC1 [Example 48]	0.088
Clc1ccc(OCC2CCCO2)c(OC2CNC2)c1 (stereo not drawn) [Example 166]	1.27
Clc1ccc(CCOc2ccc(Cl)cc2OC2CNC2)cc1 [Example 192]	0.008
CC(Oc1ccc(Cl)cc1OC1CCNCC1)c1ccccc1F (racemic) [Example 138]	0.042
C[C@H](Oc1ccc(Cl)cc1OC1CN(Cc2ccccc2)C1)c1cccc(C(F)(F)F)c1 [Example 104]	0.166

[Q] Return Ki for the following compound: FC(F)(F)c1ccc(COc2ccc(Cl)cc2OC2CNC2)o1 [Example 54]
[A] 0.006

[Q] Return Ki for the following compound: FC(F)(F)c1cccc(COc2ccc(Br)cc2OC2CNC2)c1 [Example 8]
[A] 0.006

[Q] Return Ki for the following compound: Fc1ccc2c(c1)CC(Oc1ccc(Cl)cc1OC1CNC1)C2 (stereo not drawn) [Example 175]
[A] 0.011

[Q] Return Ki for the following compound: FC(F)(F)c1ccc2c(c1)C(Oc1ccc(Cl)cc1OC1CNC1)CC2 (stereo not drawn) [Example 160]
[A] 0.015

[Q] Return Ki for the following compound: Clc1cccc(COc2cc(Br)ccc2OC2CN(C3CCC3)C2)c1 [Example 23]
[A] 0.121

[Q] Return Ki for the following compound: FC(F)(F)Oc1cccc(COc2ccc(Br)cc2OC2CNC2)c1 [Example 7]
[A] 0.01

[Q] Return Ki for the following compound: Clc1ccc(OCc2ccncc2)c(OC2CNC2)c1 [Example 53]
[A] 0.26

[Q] Return Ki for the following compound: CC(C)N1CC(Oc2ccc(Br)cc2OCc2cccc(Cl)c2)C1 [Example 24]
[A] 0.19

====

log10 of Ki values, listed per item
molecular target: rat 5-HT7 receptor (Rattus norvegicus (Rat), UniProt P32305); assay: r5-HT7 binding assay, competitive radioligand binding with [3H]5-CT; settings: rat 5-HT7 receptor, HEK-293 membranes
Log10 applied to Ki; unit prior to transform: µM.

Clc1cccc(COc2ccc(Cl)cc2OC2CNC2)c1 [Example 37]	-2.10
C[C@@H](Oc1ccc(Br)cc1OC1CNC1)c1cccc(C(F)(F)F)c1 [Example 113]	-1.96
Clc1ccc(OCc2ccccc2Cl)c(O[C@@H]2CCNC2)c1 [Example 60]	-0.60
Clc1cccc(COc2cc(Br)ccc2OC2CNC2)c1 [Example 22]	-0.90
CN1CC(Oc2cc(F)ccc2OCc2cccc(Cl)c2)C1 [Example 203]	-1.62
OCC(Oc1ccc(Cl)cc1OC1CNC1)c1ccccc1 (stereo not drawn) [Example 148]	0.30
CC(Oc1ccc(Cl)cc1OC1CNC1)c1cccc(Cl)c1 (racemic) [Example 114]	-1.85
COC(COc1ccc(Cl)cc1OC1CNC1)c1ccccc1 (stereo not drawn) [Example 168]	-0.89

// next entry
[Q] Look up and report measured log10 of Ki (rat 5-HT7 receptor (Rattus norvegicus (Rat), UniProt P32305)) for the following molecule: FC(F)(F)c1ccc(COc2ccc(Cl)cc2OC2CNC2)cc1 [Example 43]
[A] -1.82

====

Molecular target: rat 5-HT7 receptor (Rattus norvegicus (Rat))
Experiment: r5-HT7 binding assay, competitive radioligand binding with [3H]5-CT
Conditions: rat 5-HT7 receptor, HEK-293 membranes
Procedure: Receptor binding was performed using membrane fractions prepared from the HEK-293 cell line recombinantly expressing rat 5-HT7 receptors (NCBI accession NM_022938). Compound affinity for the rat 5-HT7 receptor subtype was evaluated by competitive radioligand binding assays using 5-carboxamido[^3H]tryptamine ([^3H]5-CT) (Amersham Biosciences, cat. 90000403) detection. […] Nonspecific binding was determined in the presence of 10 μM fluoxetine. […]
Mark true only when Ki stays strictly below 10 nM. Values equal to the cut-off are false.

# count of solved cases: 6
Clc1ccc(OCc2nccs2)c(OC2CNC2)c1 [Example 88]	false
CC(Oc1ccc(Cl)cc1OC1CNC1)c1ccccc1Cl (racemic) [Example 116]	false
CC(Oc1ccc(Cl)cc1OC1CNC1)c1ccc(C(F)(F)F)o1 (racemic) [Example 146]	false
FC(F)(F)c1ccc(COc2ccc(Cl)cc2OC2CCCNC2)o1 (racemic) [Example 69]	false
CCN1CC(Oc2cc(Br)ccc2OCc2cccc(Cl)c2)C1 [Example 6]	true
COc1cccc(CCOc2ccc(Cl)cc2OC2CNC2)c1 [Example 190]	true

[Q] For Clc1ccc(OCC2COc3ccccc3C2)c(OC2CNC2)c1 (stereo not drawn) [Example 167] , is the recorded Ki below the cut-off of 10 nM?
[A] false

[Q] For FC(COc1ccc(Cl)cc1OC1CNC1)c1ccccc1 (stereo not drawn) [Example 187] , is the recorded Ki below the cut-off of 10 nM?
[A] false

[Q] For Clc1ccc(OCCc2ccccc2)c(OC2CNC2)c1 [Example 186] , is the recorded Ki below the cut-off of 10 nM?
[A] true

====

log10(Ki) values, listed per item
biological target: h5HT2B (Homo sapiens (Human)); experiment: h5HT2B binding
Sequence (P41595 whole entry): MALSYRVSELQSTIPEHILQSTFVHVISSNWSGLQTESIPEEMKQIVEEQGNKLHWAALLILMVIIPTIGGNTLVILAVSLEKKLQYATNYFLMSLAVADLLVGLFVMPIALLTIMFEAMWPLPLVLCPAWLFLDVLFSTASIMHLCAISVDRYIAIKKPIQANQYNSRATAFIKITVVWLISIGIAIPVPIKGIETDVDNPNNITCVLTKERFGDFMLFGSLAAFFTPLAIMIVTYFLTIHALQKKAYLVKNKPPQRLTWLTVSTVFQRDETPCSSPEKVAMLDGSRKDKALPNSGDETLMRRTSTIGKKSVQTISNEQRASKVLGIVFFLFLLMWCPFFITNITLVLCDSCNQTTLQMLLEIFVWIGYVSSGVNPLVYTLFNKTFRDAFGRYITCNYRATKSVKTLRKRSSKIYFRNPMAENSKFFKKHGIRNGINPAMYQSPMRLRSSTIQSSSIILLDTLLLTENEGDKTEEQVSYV
Log10 applied to Ki; unit prior to transform: µM.

Fc1cccc(CCOc2ccc(Cl)cc2OC2CNC2)c1	-1.96
Fc1ccc(CCOc2ccc(Cl)cc2OC2CNC2)cc1	-1.85

[Q] Return log10(Ki) for the following compound: "Clc1cccc(COc2cc(Cl)ccc2O[C@@H]2CCNC2)c1"
[A] -1.55

[Q] Return log10(Ki) for the following compound: "C[C@@H](Oc1ccc(Cl)cc1OC1CCNCC1)c1cccc(C(F)(F)F)c1"
[A] -1.57

[Q] Return log10(Ki) for the following compound: "FC(F)(F)c1ccc(OCc2ccc(C(F)(F)F)o2)c(OC2CNC2)c1"
[A] 0.09

====

target: rat 5-HT7 receptor (Rattus norvegicus (Rat)); assay: r5-HT7 binding assay, competitive radioligand binding with [3H]5-CT; details: rat 5-HT7, HEK-293 membranes
pKi: −log10 of the molar value. Counter-ions that a name gives are not always drawn.
Kindly return condition met if reported pKi is no lower than 7; return condition not met if it is lower.

Clc1cccc(COc2ccc(Br)cc2OCC2CNC2)c1	condition met
CC(C)c1noc(COc2ccc(Cl)cc2OC2CNC2)n1 [Example 242, hydrochloride]	condition not met
Clc1ccc(Oc2nc3ccccc3s2)c(OC2CNC2)c1	condition not met

[Q] Test whether the compound "Cc1noc(COc2ccc(Cl)cc2OC2CNC2)n1" records pKi of 7 or higher.
[A] condition not met

[Q] Test whether the compound "O=C(c1ccc2ccccc2c1)c1ccc(Br)cc1OC1CNC1" records pKi of 7 or higher.
[A] condition met

[Q] Test whether the compound "Clc1ccc(Oc2cc(Cl)ccc2O[C@H]2CCNC2)cc1" records pKi of 7 or higher.
[A] condition not met

====

molecular target: UniProtKB P28223; assay: h5HT2A binding
Sequence (P28223 whole entry): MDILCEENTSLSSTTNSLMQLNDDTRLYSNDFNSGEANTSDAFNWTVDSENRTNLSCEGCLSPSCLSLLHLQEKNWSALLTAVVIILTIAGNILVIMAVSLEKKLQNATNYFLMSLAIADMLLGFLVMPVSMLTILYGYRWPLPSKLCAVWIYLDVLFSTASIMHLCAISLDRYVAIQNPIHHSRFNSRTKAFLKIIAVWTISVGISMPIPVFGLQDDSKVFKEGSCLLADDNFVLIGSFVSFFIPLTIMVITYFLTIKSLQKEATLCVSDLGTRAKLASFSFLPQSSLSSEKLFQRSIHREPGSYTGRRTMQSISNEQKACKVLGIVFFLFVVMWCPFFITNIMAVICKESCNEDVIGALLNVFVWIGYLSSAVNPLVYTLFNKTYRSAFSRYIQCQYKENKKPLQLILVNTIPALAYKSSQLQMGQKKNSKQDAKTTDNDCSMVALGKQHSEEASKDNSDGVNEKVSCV
Result Type: Ki (nM)
Give the number; nM is assumed, so skip it.

Cc1ccccc1Oc1cc(Cl)ccc1O[C@H]1CCNC1 [Example 272]	220
Cc1cccc(Oc2cc(Cl)ccc2O[C@H]2CCNC2)c1 [Example 273]	82
CC1(Oc2cc(Br)ccc2OCCc2ccccc2)CNC1 [Example 215]	6
Cc1ccc(Oc2cc(Cl)ccc2O[C@H]2CCNC2)cc1 [Example 266]	150

// next entry
[Q] Return Ki for the following compound: Cc1cc(Oc2cc(Cl)ccc2O[C@H]2CCNC2)ccc1F [Example 274]
[A] 100

====

// each record: one item and its Ki for UniProtKB P31645
Sequence (P31645 whole entry): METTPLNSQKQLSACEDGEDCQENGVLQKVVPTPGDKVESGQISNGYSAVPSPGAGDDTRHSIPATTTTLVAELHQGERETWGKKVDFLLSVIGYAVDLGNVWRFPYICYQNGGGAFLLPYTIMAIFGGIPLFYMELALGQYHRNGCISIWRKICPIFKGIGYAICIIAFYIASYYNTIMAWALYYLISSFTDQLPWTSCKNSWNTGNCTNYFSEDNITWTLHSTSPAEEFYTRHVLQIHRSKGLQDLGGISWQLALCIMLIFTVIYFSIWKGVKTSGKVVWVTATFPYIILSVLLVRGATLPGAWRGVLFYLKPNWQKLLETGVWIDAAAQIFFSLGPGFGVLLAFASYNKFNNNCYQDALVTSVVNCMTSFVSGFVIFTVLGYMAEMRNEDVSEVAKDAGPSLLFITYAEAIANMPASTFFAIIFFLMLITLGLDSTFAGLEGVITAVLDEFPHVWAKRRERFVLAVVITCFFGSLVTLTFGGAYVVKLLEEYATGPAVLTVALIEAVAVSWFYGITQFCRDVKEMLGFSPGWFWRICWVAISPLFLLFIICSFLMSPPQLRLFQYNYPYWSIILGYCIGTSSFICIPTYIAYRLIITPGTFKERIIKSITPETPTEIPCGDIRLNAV
Give the number; nM is assumed, so skip it.

Clc1cccc(COc2ccc(Br)cc2OC2CN(C3CCC3)C2)c1	381
Fc1cccc(COc2ccc(Br)cc2OC2CNC2)c1	4
CC(Oc1ccc(Cl)cc1OC1CNC1)c1ccc(C(F)(F)F)o1 (racemic)	59
COc1ccc(CCOc2ccc(Cl)cc2OC2CNC2)cc1	141
CC(Oc1ccc(Cl)cc1OC1CCNCC1)c1cccc(Cl)c1 (racemic)	98
CC1(Oc2cc(Br)ccc2OCc2ccc(C(F)(F)F)o2)CNC1	36
Clc1cccc(COc2ccc(Br)cc2OC2CCNCC2)c1	14
CCN1CC(Oc2cc(Br)ccc2OCc2cccc(Cl)c2)C1	249
CCCN1CC(Oc2cc(Br)ccc2OCc2cccc(F)c2)C1	396
FC(F)(F)c1cccc(COc2ccc(Br)cc2OC2CNC2)c1	4

// next entry
[Q] Return Ki for the following compound: "CCN1CC(Oc2cc(Br)ccc2OCc2cccc(F)c2)C1"
[A] 435
